test: Side effects and CNS/behaviour: tremor (TD50), sedative and m-cholinomimetic effects; type: in vivo; conditions: toxic dose causing tremor in 50 % of the animals
This section presents molecules with their documented TD50 (Tremor) values.
measurement kind: TD50 (Tremor)

{"molecule": "Cc1nc2c(c(N)c1C)CCC2 [Verbindung 9]", "measurement kind": "TD50 (Tremor)", "result": "7 mg/kg"}
{"molecule": "Nc1c2c(nc3c1CCC3)CCC2", "measurement kind": "TD50 (Tremor)", "result": "18 mg/kg"}
{"molecule": "Cc1nc2c(c(N)c1C)CCC2 [Verbindung 17]", "measurement kind": "TD50 (Tremor)", "result": "10 mg/kg"}
{"molecule": "Nc1c2c(nc3c1CCC3)CCCCC2", "measurement kind": "TD50 (Tremor)", "result": "18 mg/kg"}
{"molecule": "CCc1nc2c(c(N)c1C)CCC2 [Verbindung 28]", "measurement kind": "TD50 (Tremor)", "result": "20 mg/kg"}
{"molecule": "Cc1nc2c(c(N)c1C)CCC2 [Verbindung 10]", "measurement kind": "TD50 (Tremor)", "result": "6 mg/kg"}
